- assayed system: T1, cynomolgus CD73 on the cell surface (293T/17-cynoCD73 cells) (cynomolgus (Macaca fascicularis), UniProt P21589 27-547 (human entry))
- T1 chain: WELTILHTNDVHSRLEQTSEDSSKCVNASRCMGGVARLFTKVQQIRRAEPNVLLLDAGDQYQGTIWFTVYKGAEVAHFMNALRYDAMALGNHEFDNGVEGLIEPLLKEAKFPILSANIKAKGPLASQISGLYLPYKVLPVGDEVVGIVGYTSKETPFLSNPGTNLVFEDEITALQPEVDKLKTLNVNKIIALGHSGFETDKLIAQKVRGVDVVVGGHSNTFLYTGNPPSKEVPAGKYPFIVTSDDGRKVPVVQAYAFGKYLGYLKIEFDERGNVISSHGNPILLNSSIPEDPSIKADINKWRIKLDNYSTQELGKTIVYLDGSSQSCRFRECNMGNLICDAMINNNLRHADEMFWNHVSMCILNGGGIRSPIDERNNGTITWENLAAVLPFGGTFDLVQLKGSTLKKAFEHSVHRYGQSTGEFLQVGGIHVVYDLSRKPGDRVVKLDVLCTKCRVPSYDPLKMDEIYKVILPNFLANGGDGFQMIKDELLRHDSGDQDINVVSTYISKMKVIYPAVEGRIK
- run description: cell-based or functional assay
Please provide measured IC50, blockade of 5'exonuclease activity on 293T/17-Cyno CD73 cells for the entries that follow.
Value and unit, in that order.

JB94H3L3 (antibody, human IgG1, kappa, V domains shown, Humanized antibody of the 94 clone, human IgG1 / kappa) VH: QVQLQQSGAEVKKPGASVKLSCKASGYTFTSYWMHWVRQRPGQGLEWIGYINPSSGYTKSNQKFKDRATLTADTSTSTAYMELSSLRSEDTAVYYCGRWLLSAWFAYWGQGTLVTVSS VL: DIQMTQSPSSLSASVGDRVTITCKASQDINTYLSWFQQKPGKSPKSLIYRSNILVDGVPSRFSGSGSGQDYTLTISSLQPEDFAIYYCLQYDDFPYTFGQGTKLEIKR	2 pM

# context switch: different binder, same IC50, blockade of 5'exonuclease activity on 293T/17-Cyno CD73 cells
Record JB24H3L3 (antibody, human IgG1, kappa, V domains shown, Humanized antibody of JB24Chi, human IgG1 / kappa) VH: QVQLVQSGAEVKKPGASVKMSCKASGYTFTDYNMHWVKQSHGKSLEWIGYIKPHNAGTTYNPKFEGRATLTVDTSASTAYMELRSLRSEDTAVYYCVRSDFLYWYFDVWGQGTTVTVSS VL: DIVMTQSPSSLSASVGDRVTITCTASSSVSSSYLHWYQQKPGSSPKLWIYSTSNLASGVPGRFSGSGSGTDYTLTISSLQPEDFATYYCHQYHRSPLTFGAGTKLEIKR , field IC50, blockade of 5'exonuclease activity on 293T/17-Cyno CD73 cells: 3 pM

Numbers sourced from patent US20220064322A1.
